experimental-target: UniProtKB P53341
Sequence (P53341 whole entry): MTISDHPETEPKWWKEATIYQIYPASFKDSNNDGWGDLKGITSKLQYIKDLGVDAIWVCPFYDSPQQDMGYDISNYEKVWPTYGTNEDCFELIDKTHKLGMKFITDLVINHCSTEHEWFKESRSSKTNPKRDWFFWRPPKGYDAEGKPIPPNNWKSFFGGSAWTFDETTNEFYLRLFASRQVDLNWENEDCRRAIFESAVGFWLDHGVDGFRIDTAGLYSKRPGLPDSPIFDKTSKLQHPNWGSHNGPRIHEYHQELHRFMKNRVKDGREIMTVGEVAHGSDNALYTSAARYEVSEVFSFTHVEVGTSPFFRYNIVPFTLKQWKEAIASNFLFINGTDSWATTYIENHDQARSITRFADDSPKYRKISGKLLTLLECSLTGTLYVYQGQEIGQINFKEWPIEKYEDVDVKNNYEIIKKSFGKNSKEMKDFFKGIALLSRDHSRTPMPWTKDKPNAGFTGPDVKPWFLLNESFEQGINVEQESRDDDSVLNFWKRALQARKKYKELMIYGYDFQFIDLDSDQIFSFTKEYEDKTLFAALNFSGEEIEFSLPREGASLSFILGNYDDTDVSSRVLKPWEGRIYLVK
procedure-text: α-glucosidase inhibitory activity (nitrophenol method)
Type: biochemical
measurement-conditions: sample concentration 100 μM
value-kind: inhibition at 100 µM (%)
Give the value, in units of %, as a plain number.

Example results:
| compound | inhibition at 100 µM [%] |
| --- | --- |
| O=c1c(O[C@@H]2OC(CO)[C@H](O)C(O)C2O[C@@H]2OC(CO)[C@@H](O)C(O)C2O)c(-c2ccc(O)c(O)c2)oc2cc(O)cc(O)c12 (stereo partly drawn) [Formula 3] | 63.9 |
| O=c1c(O[C@@H]2OC(CO)[C@@H](O)C(O)C2O[C@@H]2OC(CO)[C@@H](O)C(O)C2O)c(-c2ccc(O)c(O)c2)oc2cc(O)cc(O)c12 (stereo partly drawn) [Formula 4] | 23.4 |

(Q) What does the data say about its inhibition at 100 µM? Entry: COc1cc(-c2oc3cc(O)cc(O)c3c(=O)c2O[C@@H]2OC(CO)[C@H](O)C(O)C2O[C@@H]2OC(C)[C@H](O)C(O)C2O)ccc1O (stereo partly drawn) [Formula 7]
(A) 22.7
